System: HOP-92 NSCLC
Experiment: NCI-60 one-dose screen, 48 h
Conditions: 10 µM unless noted
This is part of a sample that, as a whole, favours compounds with a hit. Of some 83,000 tested, about 20% had one in any assay. Activity calls are given as the source filed them. How the source made its calls: active means growth percent below 10; inactive means the rest.
Response enum: active, inactive

Request: For FC(F)(F)c1cc(NC2=NCCN=C(Nc3cc(C(F)(F)F)cc(C(F)(F)F)c3)SS2)cc(C(F)(F)F)c1 , what call appears in the results of this test?
Result: active

Request: Entry to check: C(=C\c1ccncc1)/c1ccncc1
Result: inactive

Request: Entry to check: Cc1ccc(C(C)C)c(OCC(=O)O)c1
Result: inactive

Request: Entry to check: CCOC(=O)C(C#N)=C1CCN(C)CC1
Result: inactive

Request: Entry to check: N#Cc1ccc(OC(=O)Nc2c(Cl)cc(Cl)cc2Cl)cc1
Result: inactive

Request: Entry to check: CCC(/C=C\C(C)=O)CC
Result: inactive

Request: Entry to check: CCCC(=O)CC(=O)c1ccccc1
Result: inactive

Request: Entry to check: CCC(=O)Oc1ccc2ccccc2c1
Result: inactive

Request: Entry to check: Cc1nc(O)cc(=O)[nH]1
Result: inactive

Request: Entry to check: O=C1C=C[C@H](O)[C@@]2(CO)O[C@@H]12
Result: inactive

Request: Entry to check: Oc1cc2ccccc2c(-c2c(O)c(O)cc3ccccc23)c1O
Result: active

Request: Entry to check: C=COC(=O)C(C)(C)C
Result: inactive

====

Test system: TK-10 renal
Assay: NCI-60 one-dose screen, 48 h (100 = growth as untreated, 0 = no growth, -100 = all killed)
Conditions: 10 µM unless noted
Compounds without any hit were thinned out: in the full panel of roughly 83,000, 20% have a hit.
Assay metric: growth (%)
Hi! Could you send only the number? It should be in %, unit omitted.

# annotated cases, reported growth shown
Molecule: CCOC(=O)c1c[nH][nH]c1=O
growth / %: 111
//
Molecule: CCOP(=O)(NC(c1ccccc1)c1ccccc1)OCC
growth / %: 112
//
Molecule: CN1CCCN(C(c2ccccc2)c2ccc(Cl)cc2)CC1 (centres undefined)
growth / %: 78.3
//
Molecule: Nc1ccn(C2CC(N)C(CO)O2)c(=O)n1 (centres undefined)
growth / %: 99.4
//
Molecule: c1ccc(Nc2ccccn2)nc1
growth / %: 99.4

Request: Identify the measured growth of CCNCC(C)(C)O for TK-10 renal.
Result: 108

Request: Entry to check: O=C(Nc1cccc(Cl)c1)c1ccc(Cl)cc1Cl
Result: 90.1

Request: Entry to check: Nc1nc(N)nc(N2CCCCC2)n1
Result: 91.6

Request: Entry to check: CCN(CC)c1ccc2nc3ccc(N=Nc4ccc(N(C)C)cc4)cc3[n+](-c3ccccc3)c2c1
Result: 5.74

Request: Entry to check: Nc1nc2nnc(-c3ccccc3)c(-c3ccccc3)n2n1
Result: 121

Request: Entry to check: Cc1[nH]c(=S)[nH]c(=O)c1C
Result: 107

Request: Entry to check: O=C(NCc1ccccc1)/C(=C/c1ccccc1)NC(=O)c1ccccc1
Result: 108

Request: Entry to check: COc1cc(OC)c2cc(C(=O)c3ccc(C#N)cc3)c(=O)oc2c1
Result: 97.7

Request: Entry to check: Nc1ncnc(Nc2ccccc2)n1
Result: 110
